Biological target: FGFR1 (Homo sapiens, UniProt P11362)
Sequence (P11362 22-822): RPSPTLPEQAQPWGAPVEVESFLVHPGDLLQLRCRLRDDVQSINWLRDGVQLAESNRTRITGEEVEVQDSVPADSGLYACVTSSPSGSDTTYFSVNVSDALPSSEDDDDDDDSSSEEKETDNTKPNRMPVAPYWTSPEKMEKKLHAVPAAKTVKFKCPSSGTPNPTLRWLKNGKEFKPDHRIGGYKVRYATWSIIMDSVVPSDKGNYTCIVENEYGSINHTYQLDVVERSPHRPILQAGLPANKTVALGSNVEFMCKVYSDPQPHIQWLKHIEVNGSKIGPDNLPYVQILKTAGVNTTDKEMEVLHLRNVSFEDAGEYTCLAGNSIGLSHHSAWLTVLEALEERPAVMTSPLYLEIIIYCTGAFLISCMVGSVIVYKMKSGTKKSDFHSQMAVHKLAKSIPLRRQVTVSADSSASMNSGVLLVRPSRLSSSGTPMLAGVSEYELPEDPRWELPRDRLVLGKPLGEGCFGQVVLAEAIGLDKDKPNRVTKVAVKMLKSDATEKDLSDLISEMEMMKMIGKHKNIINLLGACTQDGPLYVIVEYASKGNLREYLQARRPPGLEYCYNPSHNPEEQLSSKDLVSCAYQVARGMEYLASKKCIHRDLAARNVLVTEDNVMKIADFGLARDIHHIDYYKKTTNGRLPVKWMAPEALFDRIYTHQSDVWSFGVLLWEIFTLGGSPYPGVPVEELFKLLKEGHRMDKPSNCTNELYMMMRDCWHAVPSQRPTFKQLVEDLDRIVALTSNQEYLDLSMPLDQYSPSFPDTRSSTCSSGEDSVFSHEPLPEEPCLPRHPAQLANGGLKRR
Assay: Z'-LYTE SelectScreen biochemical kinase assay FGFR1
Settings: 10 μmolar compound concentration; ATP at Km app; read-out: FGFR1 inhibition
Parameter: inhibition at 10 µM. Scope: all listed entries.

Fill in reported inhibition at 10 µM for this entry: Cc1cc(F)ccc1-c1cccn2nc(NC3CCc4c(cnn4C(C)C)C3)nc12 (stereo not drawn)
< 40%

Fill in reported inhibition at 10 µM for this entry: CCn1ncc2c1CCC(Nc1nc3c(-c4ccccc4C)cccn3n1)C2 (stereo not drawn)
< 40%

Fill in reported inhibition at 10 µM for this entry: CCn1ncc2c1CCC(Nc1nc3c(-c4cncc(OC)c4)cccn3n1)C2 (stereo not drawn)
< 40%

Fill in reported inhibition at 10 µM for this entry: "Cc1cc(F)ccc1-c1cccn2nc(Nc3ccc4c(cnn4C)c3)nc12"
< 40%

Fill in reported inhibition at 10 µM for this entry: CCn1nnc2c1CCC(Nc1nc3c(-c4ccc(F)cc4C)cccn3n1)C2 (stereo not drawn)
< 40%
